Data credit: PubChem BioAssay AID686979

assayRemarks: qHTS for Inhibitors of human tyrosyl-DNA phosphodiesterase 1 (TDP1): qHTS in cells in presence of CPT; note: nearly all actives have a fitted effect of over 55% in size
measurementConditions: chicken DT40 Tdp1-/-;hTDP1 cells + 20 nM CPT, ATP luminescence, 48 h; series mostly up to 46.2 µM
In all, about 420,000 compounds went through this assay and about 50,000 (12%) were called active. Inconclusive results (about 26%) are left out. Calls come from the whole dose curve; as a rule, active = well fitted inhibition curve with a large enough effect; inconclusive = small, poorly fitted or top-dose-only effect; inactive = flat fitted curve, though single readings scatter. For the sample, actives were picked, then their nearest neighbours and some compounds at random.
Classes used: active, inactive

CC(C)(C)C(=O)CSc1ccc(S(=O)(=O)N2CCCC2)cn1 = inactive
COc1cc2c(cc1OC)C(c1ccc(C)o1)CC(=O)N2 (stereo unspecified) = inactive
CCOC(=O)C1CCN(c2ccc(C(=O)O)cc2[N+](=O)[O-])CC1 = inactive
Cc1ccc(C(=O)Oc2ccc(C(=S)N3CCOCC3)cc2)cc1 = inactive
COc1ccccc1C1C2=C(COC2=O)Nc2cc3c(cc21)OCO3 (stereo unspecified) = inactive
COC(=O)C1=CO[C@@H](O[C@@H]2O[C@H](CO)[C@@H](O)[C@H](O)[C@H]2O)C2C1C[C@H](O)[C@@H]2C (stereo partly specified) = inactive
Cc1ccc(NC(=O)Cc2nc(COC(=O)C(C)NS(=O)(=O)c3ccc(C)cc3)cs2)cc1 (stereo unspecified) = inactive
COc1cccc(CNCCc2c[nH]c3ccccc23)c1OCc1ccccc1F = active
CN(Cc1ccco1)S(=O)(=O)c1nnc(NC(=O)c2ccccc2)s1 = inactive
CCCCSCCCNC(=O)C1CCC(CNS(=O)(=O)c2ccc(NC(C)=O)cc2)CC1 (stereo unspecified) = inactive
COCCNC(=O)COc1ccc(N(C)S(=O)(=O)c2ccc3ccccc3c2)cc1 = inactive
COc1ccccc1CC(=O)NCCc1c[nH]c2ccccc12 = inactive
CCc1c(C)sc(NC(=O)C2c3ccccc3Oc3ccccc32)c1C(=O)OC(C)C = inactive
Cc1cc(C)n(-c2ccc(NC(=O)C3CCCCN3C(=O)c3cccs3)cc2)n1 (stereo unspecified) = inactive
COc1ccc(C(C)NC(=S)NC2CCCCC2)cc1OC (stereo unspecified) = inactive
CCOC(=O)N1CCN(C(=S)Nc2ccc(C)cc2C)CC1 = inactive
CC1CCN(CCCNC(=O)CN2C(=O)CSc3ccc(S(=O)(=O)N4CCCCC4)cc32)CC1 = inactive
CC(C)Oc1c(Br)cc(Br)cc1/C=N/NC(N)=S = active
CCN(CC(=O)Nc1cc(Cl)ccc1C)C(=O)CSCc1ccc(C)cc1 = active
CCN(CC(=O)Nc1cc(Cl)ccc1C)C(=O)Cn1c(=O)cnc2ccccc21 = inactive
CN(C(=O)COC(=O)Cc1ccccc1[N+](=O)[O-])C1CCS(=O)(=O)C1 (stereo unspecified) = inactive

###

assayRemarks: qHTS for Inhibitors of human tyrosyl-DNA phosphodiesterase 1 (TDP1): qHTS in cells in presence of CPT; note: nearly all actives have a fitted effect of over 55% in size
measurementConditions: chicken DT40 Tdp1-/-;hTDP1 cells + 20 nM CPT, ATP luminescence, 48 h; series mostly up to 46.2 µM
Out of some 420,000 compounds screened, about 50,000 (12%) were called active. Roughly 26% stayed inconclusive and do not appear here. Calls come from the whole dose curve; as a rule, active = well fitted inhibition curve with a large enough effect; inconclusive = small, poorly fitted or top-dose-only effect; inactive = flat fitted curve, though single readings scatter. The sample as a whole holds a higher share of actives than the screen did.
Classes used: active, inactive

COc1cc(OC)cc(C(=O)NC(C(=O)N2CCC2)C(C)C)c1 (stereo not given) = inactive
COc1ccc(OC)c(/C(C)=N\NC(=O)c2cc3cc(Cl)ccc3n2C)c1 = active
COc1ccccc1Oc1ccc(N2CC(C(=O)OCC(=O)c3ccc(F)cc3)CC2=O)cc1 (stereo not given) = inactive
COc1ccc(OC)c(C(=O)c2ccc(Cl)cc2)c1 = inactive
COc1ccc(N2CCN(C(=O)[C@@H](NC(=O)c3cc(OC)cc(OC)c3)C(C)C)CC2)cc1 = active

###

assayRemarks: qHTS for Inhibitors of human tyrosyl-DNA phosphodiesterase 1 (TDP1): qHTS in cells in presence of CPT; note: nearly all actives have a fitted effect of over 55% in size
measurementConditions: chicken DT40 Tdp1-/-;hTDP1 cells + 20 nM CPT, ATP luminescence, 48 h; series mostly up to 46.2 µM
Hit rate of the full screen: of about 420,000 compounds, about 50,000 (12%) were called active. Another 26% or so got no clear call; they are omitted. Calls follow the shape of the dose curve; as a rule, active = well fitted inhibition curve with a large enough effect; inconclusive = small, poorly fitted or top-dose-only effect; inactive = flat fitted curve, though single readings scatter. This excerpt belongs to a sample that is enriched for actives.
Classes used: 1 = active, -1 = inactive

Cc1ccc(NC(=O)c2nc(S(=O)(=O)Cc3cccc(C)c3)ncc2Cl)cc1 = 1
Cn1c(CC2Sc3ccccc3NC2=O)nnc1SCC(=O)c1ccc(Cl)cc1 (centres undefined) = -1
CCN(CC)C(=O)C1=C(C)N(Cc2ccc(F)cc2)C(=O)C(CC(=O)NCc2cccc3ccccc23)C1 (centres undefined) = -1
COc1ccc(N2CC(C(=O)NCCS(=O)(=O)N3CCN(c4ccccc4)CC3)CC2=O)cc1 (centres undefined) = -1
CCc1nc(N2CCN(C(C)=O)CC2)c2c3c(sc2n1)CCCC3 = -1
CNC(=O)C[C@H]1C(=O)N(c2ccc(OC)cc2)C[C@@H]1Cc1ccccc1 = -1
Cc1cccc(NC(=O)c2nc(S(=O)(=O)Cc3ccccc3)ncc2Cl)c1 = 1
O=C(Nc1ccccc1C(F)(F)F)c1nc(S(=O)(=O)Cc2ccccc2F)ncc1Cl = 1
CC12CN(Cc3ccccc3)CC(C)(CN(Cc3ccccc3)C1)C2=NO = 1
Cc1cc(C)nc(SC(C)C(=O)N/N=C/c2cccs2)n1 (centres undefined) = -1
CC12CCC(C(=O)N(NC(=O)c3ccccc3O)C1=O)C2(C)C (centres undefined) = 1
O=C(Nc1ccccc1)C1CC(=O)n2c(nc3ccccc32)N1 (centres undefined) = -1
CCCCOC(=O)c1ccc(N2C(=O)CC(N3CCN(C/C=C/c4ccccc4)CC3)C2=O)cc1 (centres undefined) = -1
CN(Cc1ccccc1)C(=O)c1ccc(NC2=NC3CS(=O)(=O)CC3S2)cc1 (centres undefined) = -1
CC1=C(C(=O)N(C)C)CC(CC(=O)NCCN2CCOCC2)C(=O)N1Cc1ccccc1 (centres undefined) = -1
O=C(C[C@H]1C(=O)N(c2ccc(F)c(F)c2)C[C@@H]1Cc1ccccc1)Nc1ccccc1 = 1
CC(=O)Oc1ccc2c(c1)C(=O)c1ccccc1C2=O = -1
CC(C)NC(=O)COCc1cc(-c2ccc3c(c2)OCO3)on1 = -1
COc1ccccc1NC1=NC(c2ccc(Cl)cc2)N=C(N)N1 (centres undefined) = 1
CCOc1ccccc1N1CN(Cc2ccccc2)CNC1=S = -1
CCN1CCN(C(=O)N(Cc2ccc(Cl)cc2)S(=O)(=O)c2ccc(C)cc2)CC1 = -1
O=C(CN1CCN(C(=O)c2ccco2)CC1)Nc1ccc2c(c1)OCO2 = -1
NC(=O)N/N=C\c1cccs1 = -1
O=C(CN1CCN(C(=O)c2ccco2)CC1)Nc1ccc(Cl)c(C(F)(F)F)c1 = 1
CCOC(=O)c1ccc(-n2c(CCC(=O)O)ccc2-c2ccccc2)cc1 = -1
O=C1C(=O)N(CCN2CCOCC2)C(c2cccc(Cl)c2)/C1=C(/O)c1ccc2c(c1)OCO2 (centres undefined) = -1
O=C(NN1C(=O)C2C(C1=O)C1C=CC2C12CC2)c1ccccc1Cl (centres undefined) = -1
O=C1C(Cl)=C(Oc2ccccc2)C(=O)c2ccccc21 = 1
CCN(CC)C(=O)c1nc[nH]c1C(=O)N(C)Cc1ccccc1 = -1
CCN(Cc1ccccc1)S(=O)(=O)c1cc2c3c(c1)CCN3C(=O)CC2 = -1
CCOC(=O)c1ccc(NC(=O)CCS(=O)(=O)c2ccc3c(c2)oc(=O)n3C)cc1 = -1
CCN(CC)c1ccc2cc(C(N)=O)/c(=N\NC(=O)c3ccncc3)oc2c1 = 1
C=CC[n+]1c(-c2ccc(C)cc2)csc1NNC(=O)Nc1ccccc1 = 1
CCc1nc2onc(C)c2c(=O)n1CC(=O)O = -1
NC(=O)c1cc2ccccc2o/c1=N/NC(=O)c1cccc(F)c1 = -1
CSc1nnc(NC(=O)c2nc(S(=O)(=O)Cc3ccc(C)cc3)ncc2Cl)s1 = 1
CCSc1nnc(NC(=O)c2ccc(C)cc2)s1 = -1
COC(=O)C[C@@H]1C=C[C@@H](NS(=O)(=O)c2cccc(OC)c2)[C@@H](CO)O1 = -1
Cc1cccc(NC(=O)C(C)SCc2ccccc2)c1 (centres undefined) = -1
CCOC(=O)c1ccc(NC(=O)CCS(=O)(=O)c2ccc(C)cc2)cc1 = 1
Cc1ccc(S(=O)(=O)CC(=O)Nc2nnc(C)s2)cc1 = -1
COc1ccccc1NC1=NC2(CCCC2)N=C(N)N1 = -1
O=C(CN1CCOC1=O)N1CCCC(Nc2ccc(F)c(F)c2)C1 (centres undefined) = -1
CC(C)Cc1nnc(NC(=O)CCc2ccccc2)s1 = -1

###

assayRemarks: qHTS for Inhibitors of human tyrosyl-DNA phosphodiesterase 1 (TDP1): qHTS in cells in presence of CPT; note: nearly all actives have a fitted effect of over 55% in size
measurementConditions: chicken DT40 Tdp1-/-;hTDP1 cells + 20 nM CPT, ATP luminescence, 48 h; series mostly up to 46.2 µM
Hit rate of the full screen: of about 420,000 compounds, about 50,000 (12%) were called active. Another 26% or so got no clear call; they are omitted. The call rests on the fitted dose curve; in most records, active means well fitted inhibition curve with a large enough effect; inconclusive means small, poorly fitted or top-dose-only effect; inactive means flat fitted curve, though single readings scatter. Only a selection was taken, and actives are over-represented in it overall.
Classes used: yes = active, no = inactive

CCc1ccc(N(CC(=O)Nc2sc3c(c2C(=O)OC)CCCC3)S(C)(=O)=O)cc1 = yes
CCOc1ncccc1C(=O)NNC(=O)c1cccc(S(=O)(=O)Nc2ccccc2OC)c1 = no
CCOC(=O)c1c(NC(=O)/C(C#N)=C/c2ccccc2)sc2c1CCC2 = no
CCOCC(=O)Nc1sc2c(c1C(=O)OCC)CCCC2 = no
COC(=O)c1c(NC(=O)CCCC(=O)O)sc2c1CCCCC2 = no
COc1ccc(CCNC(=O)/C(C#N)=C2\N=C(NC(=O)c3cccs3)c3ccccc32)cc1 = yes
COc1ccc(CN(Cc2ccc(OC)cc2)C(=O)c2cccs2)cc1 = no
COc1ccc(Nc2ccc3ccccc3c2)cc1 = no
